Hey, just so you know, these numbers are from patent EP0321100A2.

- protocol description: in vivo
- Design: species or system mice
- experimental conditions: mouse, po
measured property: TD50

# molecule, value reported
rows = [
    ("OCCN1CCN(CCOC2Cc3cc(Cl)ccc3Sc3ccccc32)CC1 (stereo not shown)", "44 mg/kg"),
]

----------
Overview of recorded pIC50 for various compounds
- measured target: dopamine D-2 receptors in the rat brain striatum (Rattus norvegicus, UniProt P61169)
- Construct: dopamine D-2 receptors in the rat brain striatum
- Sequence (P61169 whole entry): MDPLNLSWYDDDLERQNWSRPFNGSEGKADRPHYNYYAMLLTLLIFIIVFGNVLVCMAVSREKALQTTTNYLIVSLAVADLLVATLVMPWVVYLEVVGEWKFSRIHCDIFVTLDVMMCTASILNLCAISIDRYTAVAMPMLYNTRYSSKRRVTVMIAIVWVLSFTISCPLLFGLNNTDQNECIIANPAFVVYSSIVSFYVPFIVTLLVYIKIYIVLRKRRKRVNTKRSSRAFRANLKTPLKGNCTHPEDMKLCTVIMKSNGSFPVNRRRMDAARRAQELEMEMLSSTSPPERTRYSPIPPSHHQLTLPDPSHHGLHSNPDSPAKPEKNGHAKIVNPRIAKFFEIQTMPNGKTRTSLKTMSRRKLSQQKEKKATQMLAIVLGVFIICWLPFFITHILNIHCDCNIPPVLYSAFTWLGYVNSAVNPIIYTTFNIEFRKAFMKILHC
- protocol description: Inhibition of binding of 3H-spiperone to dopamine D-2 receptors
- experimental conditions: inhibition of binding of 0.5 nM ³H-spiperone, read-out: medium inhibitory concentration IC₅₀
pIC50: −log10 of the molar value.
measured property: pIC50

# compound, measured property, value reported
measured = [
    ("OCCCN1CCN(CCOC2Cc3cc(Cl)ccc3Sc3ccccc32)CC1 (centres unmarked)", "pIC50", 6.46),
    ("OCCN1CCN(CCOC2Cc3cc(Cl)ccc3Sc3ccccc32)CC1 (centres unmarked)", "pIC50", 6.67),
    ("CN1CCN(CCOC2Cc3cc(Cl)ccc3Sc3ccccc32)CC1 (centres unmarked)", "pIC50", 6.58),
    ("Clc1ccc2c(c1)CC(OCCN1CCNCC1)c1ccccc1S2 (centres unmarked)", "pIC50", 6.00),
    ("CC(=O)OCCN1CCN(CCOC2Cc3cc(Cl)ccc3Sc3ccccc32)CC1 (racemic)", "pIC50", 6.66),
]
